target: CDK5/p25NCK (Homo sapiens); experiment: ADP-Glo kinase assay on CDK enzymatic activity, CDK5/p25NCK; format: biochemical; details: 10 concentrations from 10 μM, 4-fold, 60 min room temperature
Sequence (Q00535 whole entry, species assumed): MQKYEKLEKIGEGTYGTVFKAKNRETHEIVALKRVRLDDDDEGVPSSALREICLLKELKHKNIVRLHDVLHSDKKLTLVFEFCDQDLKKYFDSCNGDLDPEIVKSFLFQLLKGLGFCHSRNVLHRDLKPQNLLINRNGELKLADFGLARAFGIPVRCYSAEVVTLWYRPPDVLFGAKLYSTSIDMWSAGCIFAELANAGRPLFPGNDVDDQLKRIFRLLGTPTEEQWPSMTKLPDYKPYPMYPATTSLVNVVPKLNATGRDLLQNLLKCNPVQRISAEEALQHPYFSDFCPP
Sequence (Q15078 99-307 partner limits assumed, species assumed): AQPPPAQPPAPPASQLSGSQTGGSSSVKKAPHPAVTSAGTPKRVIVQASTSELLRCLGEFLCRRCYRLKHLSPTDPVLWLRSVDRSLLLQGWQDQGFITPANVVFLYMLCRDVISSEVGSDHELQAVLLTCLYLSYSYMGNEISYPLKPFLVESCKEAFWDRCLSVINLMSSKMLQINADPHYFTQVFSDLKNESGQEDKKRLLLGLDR
attributeMeasured: IC50 (nM)

The examples below pair each entry with its known result.
molecule: CCNc1nc(C#N)cc2cnc(N[C@H]3C[C@H](N)C3)cc12
attributeMeasured: IC50
measureUnit: nM
recordedResult: 96

molecule: CC(C)Nc1nc(C#N)cc2cnc(N[C@@H]3CNCC(F)(F)C3)cc12
attributeMeasured: IC50
measureUnit: nM
recordedResult: 23

molecule: CC(C)(C)Nc1nc(C#N)cc2cnc(N[C@H]3CC[C@H](N)C3)cc12
attributeMeasured: IC50
measureUnit: nM
recordedResult: 238

(P) CC(C)Nc1nc(C#N)cc2cnc(N[C@@H]3CN4CCC3CC4)cc12
(Q) CC(C)Oc1nc(C#N)cc2cnc(N[C@H]3CCCNC3)cc12
(R) N#Cc1cc2cnc(N[C@H]3CCCNC3)cc2c(N[C@@H]2CCOC2)n1
(S) N#Cc1cc2cnc(N[C@H]3CCCNC3)cc2c(N[C@H](CO)c2ccccc2)n1
Data request: // smallest IC50 at index 0, largest at the end Put the labels in the order asked and list them.
Data returned: Q, R, S, P

(a) CC(C)(C)Oc1nc(C#N)cc2cnc(N[C@H]3CCCNC3)cc12
(b) C#Cc1cc2cnc(NC(=O)[C@H]3CCC[C@@H](NC(C)=O)C3)cc2c(NC(C)C)n1
Data request: Lab note: record which item had the higher IC50, a or b . Your choice should be expressed through its label.
Data returned: a

(A) CC(Nc1nc(C#N)cc2cnc(N[C@H]3CCCNC3)cc12)C(F)(F)F (some centres unmarked)
(B) CC(=O)N[C@@H]1CCC[C@H](C(=O)Nc2cc3c(NC(C)C)nc(C#N)cc3cn2)C1
(C) CC(C)Nc1nc(C#N)cc2cnc(N[C@H]3CC[C@H](O)C3)cc12
(D) CC(=O)N[C@@H]1CCC[C@H](C(=O)Nc2cc3c(N4CC[C@@H](O)C4)nc(C#N)cc3cn2)C1
Data request: // smallest IC50 at index 0, largest at the end Put the labels in the order asked and list them.
Data returned: C, A, B, D

----------
target: CDK3/CycE1 (Homo sapiens); experiment: ADP-Glo kinase assay on CDK enzymatic activity, CDK3/CycE1; assay type: biochemical; details: 10 concentrations from 10 μM, 4-fold, 60 min room temperature
Sequence (Q00526 whole entry, species assumed, one chain of several): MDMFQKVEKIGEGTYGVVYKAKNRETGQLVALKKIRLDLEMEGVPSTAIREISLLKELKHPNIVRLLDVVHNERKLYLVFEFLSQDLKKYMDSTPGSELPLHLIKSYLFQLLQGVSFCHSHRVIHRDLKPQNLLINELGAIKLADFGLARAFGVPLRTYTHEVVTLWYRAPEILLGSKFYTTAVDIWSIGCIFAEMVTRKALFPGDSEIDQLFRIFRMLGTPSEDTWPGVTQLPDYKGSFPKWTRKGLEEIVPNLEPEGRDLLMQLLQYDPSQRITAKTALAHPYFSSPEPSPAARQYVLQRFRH
attributeMeasured: IC50 (nM)

The examples below pair each entry with its known result.
compound: CC(C)Nc1nc(C#N)cc2cnc(N[C@H]3CCCN(C)C3)cc12 [Compound 57]
IC50 [nM]: 2520
--
compound: CC(=O)N[C@@H]1CCC[C@H](C(=O)Nc2cc3c(N4CCC(F)(F)CC4)nc(C#N)cc3cn2)C1 [Compound 23]
IC50 [nM]: 5650

(1) CC(C)Nc1nc(C#N)cc2cnc(N[C@H]3CC[C@H](N)C3)cc12 [Compound 28]
(2) CCNc1nc(C#N)cc2cnc(N[C@H]3C[C@H](N)C3)cc12 [Compound 184]
(3) CC(C)Nc1nc(C#N)cc2cnc(N[C@H]3CCCCNC3)cc12 [Compound 142]
(4) N#Cc1cc2cnc(N[C@H]3CCCNC3)cc2c(NC2CCC2)n1 [Compound 144]
Data request: Reorder: IC50, max to min. Put the labels in the order asked and list them.
Data returned: 2, 1, 3, 4

(P) CC(=O)N[C@@H]1CCC[C@H](C(=O)Nc2cc3c(NC(C)C)nc(CCO)cc3cn2)C1 [Compound 14]
(Q) CC(C)Nc1nc(C#N)cc2cnc(N[C@@H]3CN[C@H](CO)C3)cc12 [Compound 37]
(R) CN[C@@H]1CC[C@H](Nc2cc3c(NC(C)C)nc(C#N)cc3cn2)C1 [Compound 32]
(S) CC(C)Nc1nc(C#N)cc2cnc(N[C@H]3CC[C@H](C)NC3)cc12 [Compound 103]
(T) CC(C)(C)Nc1nc(C(F)F)cc2cnc(NC3CCNCC3)nc12 [Compound C2]
Data request: Reorder: IC50, max to min. Put the labels in the order asked and list them.
Data returned: R, Q, S, P, T

(P) CC(Nc1nc(C#N)cc2cnc(N[C@H]3CCCNC3)cc12)C(F)(F)F (stereo partly drawn) [Compound 61]
(Q) COCCN[C@H]1CC[C@H](Nc2cc3c(NC(C)C)nc(C#N)cc3cn2)C1 [Compound 56]
(R) N#Cc1cc2cnc(N[C@H]3CCCNC3)cc2c(N[C@H](CO)c2ccccc2)n1 [Compound 104]
(S) CC(C)Nc1nc(C#N)cc2cnc(N[C@H]3CC[C@H](N)CC3)nc12 [Compound 136]
Data request: // smallest IC50 at index 0, largest at the end Put the labels in the order asked and list them.
Data returned: S, P, R, Q

(a) CC(C)(C)Oc1nc(C#N)cc2cnc(N[C@H]3CCCNC3)cc12 [Compound 152]
(b) CC(C)Nc1nc(C#N)cc2cnc(N[C@@H]3CNCC[C@@H]3F)cc12 [Compound 42]
Data request: Looking only at measured IC50, which entry is lower, a or b ? Your choice should be expressed through its label.
Data returned: a
(a: 124 nM, b: 1300 nM)

----------
target: CDK9/CycT1 (Homo sapiens, UniProt P50750); experiment: Off-chip mobility shift assay (MSA) on CDK9/CycT1; assay type: biochemical; set-up: Full-length human CDK9 [1-372(end) amino acids of; host or cells: baculovirus expression system; details: 4-point concentration (0.0016, 0.008, 0.04, 0.2 uM), ATP 10 μM, reaction time 5 hours, read-out: CDK9/CycT1/nM (inhibitory activity)
Sequence (P50750 whole entry): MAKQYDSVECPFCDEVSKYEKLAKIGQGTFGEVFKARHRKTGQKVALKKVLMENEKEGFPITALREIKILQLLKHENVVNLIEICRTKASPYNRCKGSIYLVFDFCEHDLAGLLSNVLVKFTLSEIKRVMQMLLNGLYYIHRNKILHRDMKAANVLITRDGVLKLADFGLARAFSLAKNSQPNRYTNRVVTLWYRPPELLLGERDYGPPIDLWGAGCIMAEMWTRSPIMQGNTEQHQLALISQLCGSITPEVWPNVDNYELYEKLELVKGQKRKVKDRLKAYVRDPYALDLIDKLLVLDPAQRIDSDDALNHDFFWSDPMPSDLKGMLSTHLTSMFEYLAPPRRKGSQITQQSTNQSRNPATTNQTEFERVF
Sequence (O60563 whole entry partner): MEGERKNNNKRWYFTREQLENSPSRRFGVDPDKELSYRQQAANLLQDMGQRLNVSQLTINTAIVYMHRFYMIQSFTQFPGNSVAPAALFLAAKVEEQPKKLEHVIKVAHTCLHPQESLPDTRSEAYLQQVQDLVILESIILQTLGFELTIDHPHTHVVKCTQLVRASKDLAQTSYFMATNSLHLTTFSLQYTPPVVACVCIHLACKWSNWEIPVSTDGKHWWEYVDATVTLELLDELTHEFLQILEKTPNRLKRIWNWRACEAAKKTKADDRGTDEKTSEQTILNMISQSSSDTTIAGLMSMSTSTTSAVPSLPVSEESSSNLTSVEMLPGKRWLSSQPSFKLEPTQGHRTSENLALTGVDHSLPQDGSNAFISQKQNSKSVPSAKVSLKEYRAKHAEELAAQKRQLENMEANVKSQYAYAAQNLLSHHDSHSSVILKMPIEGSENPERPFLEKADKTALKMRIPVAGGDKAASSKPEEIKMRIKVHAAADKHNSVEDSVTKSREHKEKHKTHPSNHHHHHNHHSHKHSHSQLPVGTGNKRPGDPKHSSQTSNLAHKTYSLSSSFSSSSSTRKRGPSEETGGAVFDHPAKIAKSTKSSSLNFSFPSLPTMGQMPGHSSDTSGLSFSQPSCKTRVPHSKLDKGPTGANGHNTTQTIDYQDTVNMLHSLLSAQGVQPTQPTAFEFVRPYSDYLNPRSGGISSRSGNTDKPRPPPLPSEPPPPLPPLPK
attributeMeasured: IC50 (nM)

querySmiles: CC(C)Nc1nc([C@@H](C)O)cc2cnc(NCC3CCNCC3)nc12
recordedResult: 47

(1) CC(C)Nc1nc([C@@H](C)O)cc2cnc(NC(=O)[C@@H]3CCCNC3)cc12
(2) CC(=O)N1CCC(CNc2ncc3cc([C@@H](C)O)nc(NC(C)C)c3n2)CC1
Data request: Lab note: record which item had the higher IC50, 1 or 2 . Your choice should be expressed through its label.
Data returned: 2
(2: 81 nM, 1: 50 nM)

----------
target: CDK9/CycT1 (Homo sapiens, UniProt P50750); assay: ADP-Glo kinase assay on CDK enzymatic activity, CDK9/CycT1; format: biochemical; conditions: 10 concentrations from 10 μM, 4-fold, 60 min room temperature
attributeMeasured: IC50 (nM)

(A) CC(C)Nc1nc(C#N)cc2cnc(N[C@H]3C[C@H](N4CCOCC4)C3)nc12
(B) CC(C)Nc1nc(C#N)cc2cnc(N[C@@H]3CCCCNC3)nc12
Data request: Lab note: record which item had the higher IC50, A or B . Your choice should be expressed through its label.
Data returned: B
(B: 50 nM, A: 4 nM)

(I) CC(C)Nc1nc(C#N)cc2cnc(N[C@H]3C[C@H](O)C3)nc12
(II) CC(=O)N[C@@H]1CCC[C@H](C(=O)Nc2cc3c(NC(C)C)nc(CCO)cc3cn2)C1
Data request: Looking only at measured IC50, which entry is lower, I or II ? Your choice should be expressed through its label.
Data returned: I

(a) N#Cc1cc2cnc(N[C@H]3C[C@@H](N)C3)cc2c(N[C@@H]2CCOC2)n1
(b) CC(=O)N[C@@H]1CCC[C@H](C(=O)Nc2cc3c(N4CC[C@@](C)(O)C4)nc(C#N)cc3cn2)C1
Data request: Lab note: record which item had the higher IC50, a or b . Your choice should be expressed through its label.
Data returned: b
(b: 17 nM, a: 2 nM)

----------
target: CDK3/CycE1 (Homo sapiens); assay: ADP-Glo kinase assay on CDK enzymatic activity, CDK3/CycE1; type: biochemical; settings: 10 concentrations from 10 μM, 4-fold, 60 min room temperature
attributeMeasured: IC50 (nM)

The examples below pair each entry with its known result.
querySmiles: CC(C)Nc1nc(C#N)cc2cnc(N[C@H]3CCC[C@@H](O)C3)cc12
IC50 [nM]: 90
//
querySmiles: CC(C)Oc1nc(C#N)cc2cnc(N[C@H]3CC[C@H](N)C3)cc12
IC50 [nM]: 88

(a) CC(C)Nc1nc(C#N)cc2cnc(NC34CC(N)(C3)C4)nc12
(b) CC(=O)N[C@@H]1CCC[C@H](C(=O)Nc2cc3c(NC4CC4)nc(C#N)cc3cn2)C1
Data request: Lab note: record which item had the higher IC50, a or b . Your choice should be expressed through its label.
Data returned: b

----------
target: CDK1/CycE1 (Homo sapiens); assay: ADP-Glo kinase assay on CDK enzymatic activity, CDK1/CycE1; format: biochemical; conditions: ADP-Glo; 10 concentrations from 10 μM, 4-fold; 60 min room temperature; read-out: CDK1/CycE1/nM (IC50)
Sequence (P06493 whole entry, species assumed): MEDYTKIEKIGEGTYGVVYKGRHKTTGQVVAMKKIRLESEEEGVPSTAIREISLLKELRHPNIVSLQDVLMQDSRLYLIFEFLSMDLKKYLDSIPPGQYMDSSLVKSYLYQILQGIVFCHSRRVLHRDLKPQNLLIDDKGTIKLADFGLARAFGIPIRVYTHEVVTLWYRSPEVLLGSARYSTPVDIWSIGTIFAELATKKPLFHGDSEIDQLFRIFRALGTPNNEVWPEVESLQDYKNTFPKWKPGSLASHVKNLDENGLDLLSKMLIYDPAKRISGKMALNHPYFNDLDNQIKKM
Sequence (P24864 whole entry partner, species assumed): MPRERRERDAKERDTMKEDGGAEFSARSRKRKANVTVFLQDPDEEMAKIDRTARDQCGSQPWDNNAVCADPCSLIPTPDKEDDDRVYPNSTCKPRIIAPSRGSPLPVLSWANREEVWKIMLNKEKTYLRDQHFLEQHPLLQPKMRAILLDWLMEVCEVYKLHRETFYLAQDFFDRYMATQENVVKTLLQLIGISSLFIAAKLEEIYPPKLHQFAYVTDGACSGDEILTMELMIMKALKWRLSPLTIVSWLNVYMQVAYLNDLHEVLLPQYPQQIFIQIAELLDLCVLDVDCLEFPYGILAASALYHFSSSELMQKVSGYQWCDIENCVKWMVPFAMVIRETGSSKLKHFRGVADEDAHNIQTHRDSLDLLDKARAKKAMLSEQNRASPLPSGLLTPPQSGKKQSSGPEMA
attributeMeasured: IC50 (nM)

The examples below pair each entry with its known result.
compound: CC(C)Oc1nc(C#N)cc2cnc(N[C@H]3CCCNC3)cc12 [Compound 153]
recordedResult: 133
//
compound: CCNc1nc(C#N)cc2cnc(N[C@H]3C[C@H](N)C3)cc12 [Compound 184]
recordedResult: 163
//
compound: CC(C)Nc1nc(C#N)cc2cnc(N[C@@H]3CN4CCC3CC4)nc12 [Compound C45]
recordedResult: 467
//
compound: CC(C)Nc1nc(C(F)F)cc2cnc(Nc3cc(CS(C)(=N)=O)ccn3)cc12 (stereo not drawn) [Compound 163]
recordedResult: 31

(1) CC1(Nc2nc(C#N)cc3cnc(N[C@H]4C[C@](C)(N)C4)cc23)CC1 [Compound 211]
(2) N#Cc1cc2cnc(N[C@H]3CCCNC3)cc2c(N2CCCC2)n1 [Compound 169]
(3) CC(C)Nc1nc(C#N)cc2cnc(N[C@H]3C[C@@H](N)C3)cc12 [Compound 164]
(4) CC(C)Nc1nc(C#N)cc2cnc(N[C@H]3C[C@@H](O)C3)nc12 [Compound 133]
(5) CC(C)Nc1nc(C#N)cc2cnc(N[C@H]3C[C@H](N)C3)cc12 [Compound 183]
Data request: // smallest IC50 at index 0, largest at the end Put the labels in the order asked and list them.
Data returned: 4, 5, 3, 1, 2
(4: 29 nM, 5: 50 nM, 3: 138 nM, 1: 233 nM, 2: 798 nM)

(P) N#Cc1cc2cnc(N[C@H]3C[C@@H](N)C3)cc2c(N[C@@H]2CCOC2)n1 [Compound 174]
(Q) CC(C)(C)Oc1nc(C#N)cc2cnc(N[C@H]3CCCNC3)cc12 [Compound 152]
(R) N#Cc1cc2cnc(N[C@H]3CCCNC3)cc2c(NC2CCCC2)n1 [Compound 168]
Data request: Reorder: IC50, max to min. Put the labels in the order asked and list them.
Data returned: P, Q, R
(P: 871 nM, Q: 110 nM, R: 63 nM)

(A) CC(C)Nc1nc(C#N)cc2cnc(N[C@H]3CCCNCC3)nc12 [Compound 131]
(B) N#Cc1cc2cnc(N[C@H]3C[C@H](N)C3)nc2c(N2CCCCC2)n1 [Compound C15]
Data request: Lab note: record which item had the higher IC50, A or B . Your choice should be expressed through its label.
Data returned: A
(A: 678 nM, B: 114 nM)

(I) CC(C)CNc1nc(C#N)cc2cnc(N[C@H]3C[C@H](N)C3)nc12 [Compound C25]
(II) FC(F)c1cc2cnc(N[C@H]3CCCNC3)cc2c(O[C@@H]2CCOC2)n1 [Compound 202]
Data request: Looking only at measured IC50, which entry is lower, I or II ? Your choice should be expressed through its label.
Data returned: I
